Just for reference, patent US20260365670A1 is where these values come from.

System: A-431
Assay: Cell proliferation assay, A-431 cells (GI50, Table 6)
Format: cell-based
Conditions: Homo sapiens, A-431, A-431 cells
reported.property: GI50 (µM)

CN1CCC2CN(c3ccc4nc5n(c4c3)C34CCC(CC3)CN(CCOc3c(cnn3C)-c3cc(cn(C)c3=O)C(=O)N5)C4)CC21 (stereo not drawn) | 4.68
Cc1cc2cc(n1)-c1cnn(C)c1OCCCCCn1c(nc3ccc4c(c31)CCNC4)NC2=O | 3.23
Cc1cc2cc(n1)-c1cnn(C)c1OCCN1CC3CCC(C3)(C1)n1c(nc3ccc(N4CCC(N(C)C)CC4)cc31)NC2=O (single isomer, unassigned) [Example B40B] | 0.333
